Data provenance is patent US20060269997A1.

fold reduction in binding (IC50 variant / IC50 VEGF(1-109)) overview
# targetOrSystem: T1, KDR (1-3) monomer (UniProt P35968 20-327, limits assumed, biotin-labeled in the ELISA of Example 8)
# T1 construct: domain: domains 1 to 3; Genentech reagent; also called domains 1 to 3 of KDR
# T1 sequence (P35968 20-327 limits assumed): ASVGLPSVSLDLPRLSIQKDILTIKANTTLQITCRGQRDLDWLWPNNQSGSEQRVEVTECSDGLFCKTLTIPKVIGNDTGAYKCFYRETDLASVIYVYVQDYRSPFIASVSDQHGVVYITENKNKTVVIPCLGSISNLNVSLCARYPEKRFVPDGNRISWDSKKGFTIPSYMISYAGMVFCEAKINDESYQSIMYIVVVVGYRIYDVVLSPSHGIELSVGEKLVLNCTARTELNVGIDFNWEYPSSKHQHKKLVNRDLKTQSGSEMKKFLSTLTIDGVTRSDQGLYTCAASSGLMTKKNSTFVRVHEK
# protocolSummary: competition ELISA: plate coated with VEGF (8-109), 100 pM biotin-labeled KDR(1-3), serial dilutions of the competing VEGF (Example 8)
Please give a number only; it is taken to be in fold.

binder: Ile 83* (ligand) APMAEGGGQNHHEVVKFMDVYQRSYCHPIETLVDIFQEYPDEIEYIFKPSCVPLMRCGGCCNDEGLECVPTEESNITMQIMRAKPHQGQHIGEMSFLQHNKCECRPKKD
assayResult: 89

Need fold reduction in binding (IC50 variant / IC50 VEGF(1-109)), item Tyr 21** (ligand) APMAEGGGQNHHEVVKFMDVAQRSYCHPIETLVDIFQEYPDEIEYIFKPSCVPLMRCGGCCNDEGLECVPTEESNITMQIMRIKPHQGQHIGEMSFLQHNKCECRPKKD
19

Consider the binder shown here: Glu 64* (ligand) APMAEGGGQNHHEVVKFMDVYQRSYCHPIETLVDIFQEYPDEIEYIFKPSCVPLMRCGGCCNDAGLECVPTEESNITMQIMRIKPHQGQHIGEMSFLQHNKCECRPKKD What is its recorded fold reduction in binding (IC50 variant / IC50 VEGF(1-109))?
10

Any idea what its fold reduction in binding (IC50 variant / IC50 VEGF(1-109)) is? The binder is Ile 91 (ligand) APMAEGGGQNHHEVVKFMDVYQRSYCHPIETLVDIFQEYPDEIEYIFKPSCVPLMRCGGCCNDEGLECVPTEESNITMQIMRIKPHQGQHAGEMSFLQHNKCECRPKKD
1

I would be grateful if you could share the reported fold reduction in binding (IC50 variant / IC50 VEGF(1-109)) for His 86** (ligand) APMAEGGGQNHHEVVKFMDVYQRSYCHPIETLVDIFQEYPDEIEYIFKPSCVPLMRCGGCCNDEGLECVPTEESNITMQIMRIKPAQGQHIGEMSFLQHNKCECRPKKD .
2

Which fold reduction in binding (IC50 variant / IC50 VEGF(1-109)) is reported for this binder? Pro 106 (ligand) APMAEGGGQNHHEVVKFMDVYQRSYCHPIETLVDIFQEYPDEIEYIFKPSCVPLMRCGGCCNDEGLECVPTEESNITMQIMRIKPHQGQHIGEMSFLQHNKCECRAKKD
1

What does the data say about its fold reduction in binding (IC50 variant / IC50 VEGF(1-109))? Entry: Ile 43* (ligand) APMAEGGGQNHHEVVKFMDVYQRSYCHPIETLVDIFQEYPDEAEYIFKPSCVPLMRCGGCCNDEGLECVPTEESNITMQIMRIKPHQGQHIGEMSFLQHNKCECRPKKD
21

Look up fold reduction in binding (IC50 variant / IC50 VEGF(1-109)) for this binder: Arg 105 (ligand) APMAEGGGQNHHEVVKFMDVYQRSYCHPIETLVDIFQEYPDEIEYIFKPSCVPLMRCGGCCNDEGLECVPTEESNITMQIMRIKPHQGQHIGEMSFLQHNKCECAPKKD
1
